Target: Glucocorticoid receptor (Homo sapiens)
Test: GR-GFP Redistribution (AID 450)
Settings: U2OS GR-GFP nuclear translocation, laser cytometry, 2 h
Calls of active or inactive are those of the source.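 How the source made its calls: active means compounds whose dose series gives a full or clear partial fitted curve of increased nuclear translocation; inconclusive means weak partial curve or effect only at the top dose; inactive means no dose-dependent translocation response.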
Give your call using only these classes: TRUE (active), FALSE (inactive)

Lab log entry: "CC[C@H](C)C(=O)O[C@@H]1C[C@H](C)C=C2C=C[C@H](C)[C@@H](CC[C@H]3C[C@@H](O)CC(=O)O3)[C@H]21" — outcome as called in the assay?
FALSE

Now consider "CS(=O)(=O)Nc1cccc(-c2nc(Nc3ccccc3)c3ccccc3n2)c1" .
FALSE

Cool, now "Cc1cc2ccc(=O)oc2cc1OC[C@@H](O)C(C)(C)O"
FALSE

Same for "C=CCN1C(=CCO)[C@H]2C[C@H]3[C@@H]1CC[C@@]31c3ccccc3N3C=C4[C@@H]5N(/C=C/2[C@H]31)c1ccccc1[C@]51CC[C@H]2[C@H]1C[C@@H]4/C(=C/CO)N2CC=C"
FALSE

Further, for "O=C(Nc1ccccc1)OC[C@H](CN1CCCCC1)OC(=O)Nc1ccccc1" ?
FALSE

Next entry: "C[C@@H]1C[C@H]2[C@@H]3C[C@H](F)C4=CC(=O)C=C[C@]4(C)[C@@]3(F)[C@@H](O)C[C@]2(C)[C@@]1(O)C(=O)COC(=O)C(C)(C)C"
TRUE

Please answer likewise for "COc1ccc([C@@H]2CC(=O)c3c(O)cc(O[C@H]4O[C@@H](CO[C@H]5O[C@@H](C)[C@@H](O)[C@@H](O)[C@@H]5O)[C@@H](O)[C@@H](O)[C@@H]4O)cc3O2)cc1O"
FALSE

Moving on to the next molecule: "CNCCC=C1c2ccccc2C=Cc2ccccc21"
FALSE

Now try "CCO[C@H]1O[C@@H]([C@H](COCc2ccccc2)OCc2ccccc2)[C@@H](OCc2ccccc2)[C@H]1O" .
FALSE

Same read-out for CO[C@]1(NC(=O)C2SC(=C(C(N)=O)C(=O)O)S2)C(=O)N2C(C(=O)O)=C(CSc3nnnn3C)CS[C@H]21 (stereo not given in full) ?
FALSE

Would you kindly repeat that for "COc1cc2ccc(=O)oc2c(O)c1O" ?
FALSE

Do the same for "CC[C@H](CC[C@H](C)[C@@H]1CC[C@@H]2[C@H]3CC=C4C[C@@H](O)CC[C@]4(C)[C@H]3CC[C@]21C)C(C)C" please
FALSE

Can you check "CCC(=O)O[C@@H]1[C@H](C)O[C@H](O[C@H]2[C@@H](N(C)C)[C@H](O)[C@@H](O[C@@H]3[C@@H](CC=O)C[C@@H](C)[C@@H](O)/C=C\C=C/C[C@@H](C)OC(=O)C[C@@H](OC(=O)CC)[C@H]3OC)O[C@H]2C)C[C@]1(C)O" next?
FALSE

How about "COc1ccc2c3c([nH]c2c1)[C@@H]1C[C@@H]2[C@@H](C[C@H](O)[C@H](OC)[C@H]2C(=O)O)CN1CC3" ?
FALSE

Consider next the molecule "O=C(NC[C@@H](O)CO)c1c(I)c(C(=O)NC[C@@H](O)CO)c(I)c(N(CCO)C(=O)CO)c1I" in the same way.
FALSE

---

Target: Rap guanine nucleotide exchange factor 3 (Homo sapiens) (UniProt O95398)
Sequence (O95398 whole entry, looked up): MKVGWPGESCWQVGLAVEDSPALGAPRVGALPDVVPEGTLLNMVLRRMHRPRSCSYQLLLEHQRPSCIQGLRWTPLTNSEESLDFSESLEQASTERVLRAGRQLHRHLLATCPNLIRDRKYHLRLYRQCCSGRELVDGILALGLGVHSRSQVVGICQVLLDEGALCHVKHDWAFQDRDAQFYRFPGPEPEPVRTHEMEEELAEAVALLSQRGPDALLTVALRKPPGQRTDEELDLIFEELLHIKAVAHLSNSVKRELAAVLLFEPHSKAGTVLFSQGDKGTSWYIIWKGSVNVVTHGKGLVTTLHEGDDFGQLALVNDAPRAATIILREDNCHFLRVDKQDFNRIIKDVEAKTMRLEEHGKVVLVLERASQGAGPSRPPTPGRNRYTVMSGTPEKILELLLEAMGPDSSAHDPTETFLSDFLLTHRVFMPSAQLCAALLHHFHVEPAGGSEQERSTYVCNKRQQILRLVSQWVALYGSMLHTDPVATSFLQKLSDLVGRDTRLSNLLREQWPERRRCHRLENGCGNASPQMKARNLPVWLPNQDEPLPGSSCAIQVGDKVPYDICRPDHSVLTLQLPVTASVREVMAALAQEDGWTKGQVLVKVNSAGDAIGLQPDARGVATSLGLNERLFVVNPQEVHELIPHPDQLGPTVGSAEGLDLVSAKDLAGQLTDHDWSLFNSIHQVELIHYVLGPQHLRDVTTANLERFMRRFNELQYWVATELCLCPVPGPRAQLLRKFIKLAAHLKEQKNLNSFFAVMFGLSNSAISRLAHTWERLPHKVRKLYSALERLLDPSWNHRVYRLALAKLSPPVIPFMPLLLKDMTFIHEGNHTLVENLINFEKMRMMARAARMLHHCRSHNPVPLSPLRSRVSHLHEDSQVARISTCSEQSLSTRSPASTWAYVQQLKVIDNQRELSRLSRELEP
Assay: Counterscreen qHTS for antagonist of cAMP-regulated guanine nucleotide exchange factor 3 (EPAC1) (AID 1645888);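 further: fluorescence loss as bound BODIPY-GDP is released from Rap1B; % of control where 0% means no effect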
Details: Rap1B-BODIPY-GDP nucleotide exchange, fluorescence; series mostly up to 154 µM
Source text: Assay Provider (PI): Xiaodong Cheng Ph.D. The University of Texas Medical Branch, […], TX MLPCN Grant: NS066510 In multi-cellular eukaryotic organisms, the effects of cAMP are transduced by two ubiquitously-expressed intracellular cAMP receptors, the classic protein kinase A/cAMP-dependent protein kinase (PKA/cAPK) and the more recently discovered exchange protein directly activated by cAMP/cAMP-regulated guanine nucleotide exchange factor (EPAC/cAMP-GEF). […]
Records with an inconclusive call do not appear. Active and inactive are the calls of the source. The call rests on the fitted dose curve; in most records, active means well fitted inhibition curve with a large enough effect; inconclusive means small, poorly fitted or top-dose-only effect; inactive means no such curve, though single readings can be large or run the other way.
RESULT TYPE: activity change, negative = inhibition

Here's what some known entries look like.
COMPOUND	activity change, negative = inhibition
CC/C(=N/NC(=O)c1ccc2c(c1)OCO2)c1ccccc1O	inactive
CSc1ccccc1NC(=O)COc1ccccc1C	-1.84% [at 30.8 µM] (inactive)
Cn1c(=O)c2c(-c3ccccc3Br)n(CCc3ccccc3)cc2n(C)c1=O	inactive
OC[C@H]1O[C@H](OCCc2ccc(O)cc2)[C@H](O)[C@@H](O)[C@@H]1O	inactive
O=C(CCCC(=O)Nc1cccnc1)Nc1cccnc1	inactive
CCOCCCn1c(=N)c(C(=O)NC(C)c2ccccc2)cc2c(=O)n3cccc(C)c3nc21 (stereo not given)	inactive

What value of activity change, negative = inhibition has been reported for the following compound? COc1ccc(S(=O)(=O)N2CCCCCC2)cc1C(=O)N1CCCC(C(F)(F)F)C1 (stereo not given)
-17.4% [at 30.8 µM] (inactive)

How about this compound: "Cc1ccc(/C=C2\SC(=S)N(NS(=O)(=O)c3ccc(C)cc3)C2=O)cc1"
-10.4% [at 30.8 µM] (inactive)

Then "O=C1C(Cl)=C(N2CCC(C(=O)O)CC2)C(=O)c2ccccc21" ?
inactive

Would you kindly repeat that for "O=C(Nc1cccc(C(F)(F)F)c1)c1cccc(NS(=O)(=O)c2ccc(O)c(C(=O)O)c2)c1" ?
inactive

---

Assay: NFAT Signaling Pathway (AID 444);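 further: carbachol stimulus at about its EC50 of 1 µM final; on the % scale 0 is the no-effect control and ±100 the full control effect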
Conditions: Jurkat NFAT-bla M1, carbachol, beta-lactamase ratio, 5 h; at 17.2 µM (top of the series) unless noted
Records with an inconclusive call do not appear. Calls of active or inactive are those of the source. Calls follow the shape of the dose curve; as a rule, active = well fitted curve in either direction with a large enough effect (not every such curve was filed as active); inconclusive = small, poorly fitted or top-dose-only effect, or another doubt; inactive = flat fitted curve, though single readings scatter.
Pick one and only one: YES for active, NO for inactive

Entry "COC(=O)C1=C(C)NC(C)=C(C(=O)OC(C)C)[C@H]1c1cccc2nonc12" : call = ?
NO

Try the compound "Cc1nccn1C[C@@H]1CCc2c(c3ccccc3n2C)C1=O"
NO

What about this compound? "CN1C(=O)C[C@H](c2ccccc2)C1=O"
NO

Also "CC(=O)/C(C)=N\O" ?
NO

Check "O=c1cc(-c2ccc(O)cc2)oc2c([C@H]3O[C@@H](CO)[C@@H](O)[C@@H](O)[C@@H]3O)c(O)cc(O)c12" too.
NO

Try the compound "C[C@@H]1[C@H](C)CC[C@@]2(C(=O)O)CC[C@]3(C)C(=CC[C@H]4[C@@]5(C)CC[C@@H](O)C(C)(C)[C@@H]5CC[C@@]43C)[C@@H]12"
NO

Follow-up entry: "CO/N=C(\C(=O)N[C@@H]1C(=O)N2C(C(=O)O)=C(COC(N)=O)CS[C@@H]12)c1ccco1"
NO

What do you have for "CC(=O)O[C@]1(C(C)=O)CC[C@@H]2[C@@H]3C=C(C)C4=CC(=O)CC[C@@]4(C)[C@H]3CC[C@]21C" ?
NO

"C=C1C[C@@]23C[C@]1(O)CC[C@@H]2[C@]12C=C[C@@H](O)[C@](C)(C(=O)O1)[C@H]2[C@H]3C(=O)O" ?
NO

Now consider "NS(=O)(=O)c1cc2c(cc1Cl)N[C@@H](C(Cl)Cl)NS2(=O)=O" .
NO

Check COc1cc(C2Oc3cc(C4Oc5cc(O)cc(O)c5C(=O)C4O)ccc3OC2CO)ccc1O (stereo unspecified) too.
NO

Likewise for "O=C1O[C@@H]([C@@H](O)CO)[C@@H](O)[C@H]1O" ?
NO

Subsequent entry: "CC(C)(C)NC(=O)[C@@H]1C[C@H]2CCCC[C@@H]2CN1C[C@H](O)[C@H](Cc1ccccc1)NC(=O)[C@@H](CC(N)=O)NC(=O)c1ccc2ccccc2n1"
NO

Continue with "CO[C@H]1[C@H](O[C@H]2O[C@@H](C)[C@@H](O[C@@H]3C[C@](C)(O)[C@H](O)[C@H](C)O3)[C@@H](N(C)C)[C@@H]2O)[C@@H](CC=O)C[C@@H](C)[C@@H](O[C@H]2CC[C@H](N(C)C)[C@H](C)O2)/C=C\C=C/C[C@@H](C)OC(=O)C[C@H]1O"
NO

Now consider "NC[C@@H]1O[C@@H](O[C@H]2[C@H](O)[C@H](O[C@@H]3O[C@H](CO)[C@@H](O)[C@H](N)[C@@H]3O)[C@@H](N)C[C@H]2N)[C@H](N)C[C@@H]1O" .
NO

For "NC(=O)N[C@H]1NC(=O)NC1=O" then?
NO

# repeat for CO[C@]1(NC(=O)C2SC(=C(C(N)=O)C(=O)O)S2)C(=O)N2C(C(=O)O)=C(CSc3nnnn3C)CS[C@H]21 (stereo partly specified)
NO

And "C[C@]1(OC(=O)/C=C\c2ccccc2)C[C@@H](O)[C@@]2(O)C=CO[C@@H](O[C@H]3O[C@@H](CO)[C@@H](O)[C@@H](O)[C@@H]3O)[C@H]21" ?
NO

Then this compound: "COc1ccc2c3c([nH]c2c1)[C@@H]1C[C@@H]2[C@@H](C[C@H](O)[C@H](OC)[C@H]2C(=O)O)CN1CC3"
NO

// next record "CC[C@@H]1OC(=O)[C@H](C)[C@H](O[C@@H]2C[C@](C)(OC)[C@H](O)[C@H](C)O2)[C@H](C)[C@H](O[C@@H]2O[C@@H](C)C[C@@H](N(C)C)[C@@H]2O)[C@](C)(O)C[C@H](C)[C@@H]2N[C@H](COCCOC)O[C@H]([C@@H]2C)[C@]1(C)O"
NO

Same question for "CC[C@H](CO)NCCN[C@@H](CC)CO" please.
NO

Also "NS(=O)(=O)c1cc2c(cc1Cl)N[C@@H](CC1CCCC1)NS2(=O)=O" ?
NO

Try this compound next: "C[N+]1(C)CC[C@@H](OC(=O)[C@@](O)(c2ccccc2)C2CCCC2)C1"
YES

Let us now turn to "CN(C)c1ccc(-c2nccc(NCc3ccccc3)n2)cc1"
NO

Now give it for "CCC(C)(C)C(=O)O[C@@H]1C[C@H](C)C=C2C=C[C@H](C)[C@@H](CC[C@H]3C[C@@H](O)CC(=O)O3)[C@H]21" too.
NO

Likewise for "CCN1CCC[C@@H](OC(=O)C(c2ccccc2)c2ccccc2)C1" ?
YES

Next record, please: "C=CCOc1ccccc1OC[C@H](O)CNC(C)C"
NO

Next: "C[C@H](CCC(=O)O)[C@H]1CC[C@@H]2[C@@H]3[C@@H](O)C[C@H]4C[C@@H](O)CC[C@@]4(C)[C@H]3CC[C@@]21C"
NO

Follow-up item: "CCC[C@@H]1O[C@@H]2C[C@@H]3[C@H]4CCC5=CC(=O)C=C[C@@]5(C)[C@H]4[C@H](O)C[C@@]3(C)[C@@]2(C(=O)CO)O1"
NO

Also need "C=CC1=C(C(=O)O)N2C(=O)[C@@H](NC(=O)/C(=N\OCC(=O)O)c3csc(N)n3)[C@@H]2SC1" , thanks.
NO

What do you get for O=C(O)[C@@H](O)[C@@H](O)[C@@H](O)[C@@H](O)C(=O)O (tested in a mixture with another compound) ?
NO
